# test-method-notes: survival rescue of mitochondrial mutant cells in low glucose, primary screen, MELAS cybrids, Rieske KO mouse fibroblasts, CellTiter-Glo (AID 1508586);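 note: z relative to plate mean and SD of compound and empty wells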
# measurement-context: MELAS cybrid survival, CellTiter-Glo 48 h, stronger effect = higher value
measurement-label: z-score
One number for each entry.

The cases that follow already have their z-score on record.
CN1CCCN=C1/C=C/c1cccs1; 0.267
C(=C\c1ccccc1)/CN1CCN(C(c2ccccc2)c2ccccc2)CC1; 0.0624

Below is a list of molecules. For each, state its recorded z-score.
1. CCCCOC(=O)c1ccc(O)cc1
2. OCc1c[nH]c2ccccc12
3. CCOc1ccccc1OCC1CNCCO1 (configuration not stated)
4. CC[C@@]1(O)C[C@H](O[C@H]2C[C@H](N(C)C)[C@H](O[C@H]3C[C@H](O)[C@H](O[C@H]4CCC(=O)[C@H](C)O4)[C@H](C)O3)[C@H](C)O2)c2c(cc3c(c2O)C(=O)c2c(O)cccc2C3=O)[C@H]1C(=O)OC
5. CCCCCCCCCCCCCCCC[N+](C)(C)CCN(Cc1ccc(OC)cc1)c1ncccn1

1. 0.705
2. -0.392
3. 0.538
4. 0.116
5. -2.42

====

# Tested on: R275C/beta4
# test-method-notes: modulators of BK channel variants, profiling panel, selectivity assay, cell-based, U2OS BacMam, thallium flux, beta subunits (AID 1259406);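 note: initial slope of Thallos dye fluorescence rise after thallium is added; log ratio against the mean of 0.3% DMSO vehicle wells on the same plate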
# measurement-context: at 30 µM
Give measured log fold change Tl+ flux for each item. Keep answers brief.
Answers are plain numbers.

CC1=C(/C=C/C(C)=C/C=C/C(C)=C\C(=O)O)C(C)(C)CCC1; 0.00975
CC(C)NCC(O)COc1cccc2[nH]ccc12 (centres undefined); -0.00429
CC(C(=O)O)c1cccc(C(=O)c2ccccc2)c1 (centres undefined); 0.00182

Consider the compound "Nc1ncnc2c1ncn2[C@@H]1O[C@H](CO)[C@@H](O)[C@@H]1O" and give its measured log fold change Tl+ flux.
0.00861

====

# test-method-notes: sensitizers of A549 cells to miR-34 induction, primary screen, imaging, A549 dox-inducible miR-34, nuclei and caspase counts (AID 1347080)
# measurement-context: A549 miR-34 inducible, Hoechst nuclei count, 48 h; measured here: total cells with miR-34 induction; stronger effect = lower value
Give measured cell count for each item. Keep answers brief.
Numbers only.

The cases that follow already have their cell count on record.
COc1ccc(-c2cc(=S)ss2)cc1; 8880
Cc1occc(=O)c1O; 9050
Cc1ncc(CSSCc2cnc(C)c(O)c2CO)c(CO)c1O; 8920
O=C(CCc1ccc(O)cc1)c1c(O)cc(O)cc1O[C@@H]1O[C@H](CO)[C@@H](O)[C@H](O)[C@H]1O; 9120
O=C1OC(=O)C2C3CCC(O3)C12 (stereo not drawn); 8750

Below is a list of compounds. For each, state its recorded cell count.
1. C[N+](C)(C)CC[N+]1(C)Cc2c(Cl)c(Cl)c(Cl)c(Cl)c2C1
2. CN1CCCN=C1/C=C/c1cccs1

9090
9190

Consider the compound CC(=O)N(CC(O)CO)c1c(I)c(C(=O)NCC(O)CO)c(I)c(C(=O)NCC(O)CO)c1I (stereo not drawn) and give its measured cell count.
8930

====

Give measured z-score for each item. Keep answers brief.
# test-method-notes: survival rescue of mitochondrial mutant cells in low glucose, primary screen, MELAS cybrids, Rieske KO mouse fibroblasts, CellTiter-Glo (AID 1508586);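 note: z relative to plate mean and SD of compound and empty wells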
# measurement-context: MELAS cybrid survival, CellTiter-Glo 48 h, stronger effect = higher value
Active and inactive are the calls of the source.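 How the source made its calls: active means mean z-score across replicates of 1.96 or higher in either the MELAS or the Rieske mutant cell line; inactive means the rest.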

The cases that follow already have their z-score on record.
O=C(Oc1cccc2cccnc12)c1ccccc1; 0.276 (inactive)
CC1(C)CCC(C)(C)c2cc(NC(=O)c3ccc(C(=O)O)cc3)ccc21; 0.242 (inactive)
O=C(O)c1cc(-c2ccccc2)nc2ccccc12; -0.261 (inactive)
COc1ccc2cc([C@H](C)C(=O)O)ccc2c1; 0.168 (inactive)
O=C(CCCN1CCC(O)(c2ccc(Br)cc2)CC1)c1ccc(F)cc1; 0.333 (inactive)

Below is a list of compounds. For each, state its recorded z-score.
1. CCCCc1cc2ccccc2c(OCCN(C)C)n1
2. Nc1c(CC(=O)O)cccc1C(=O)c1ccc(Br)cc1
3. O=C(O)Cc1cccc2ccccc12
4. CCCOc1cc(N)ccc1C(=O)OCCN(CC)CC

1. 0.0733 (inactive)
2. -0.257 (inactive)
3. 0.391 (inactive)
4. -0.734 (inactive)
